Molecular target: T1, mouse IL-5Rα on Y16 cells (mouse, UniProt P21183 18-415)
T1 construct: whole, on cells; also called IL-5Rα chain; mouse IL-5Rα-expressing cell Y16
T1 sequence (looked up): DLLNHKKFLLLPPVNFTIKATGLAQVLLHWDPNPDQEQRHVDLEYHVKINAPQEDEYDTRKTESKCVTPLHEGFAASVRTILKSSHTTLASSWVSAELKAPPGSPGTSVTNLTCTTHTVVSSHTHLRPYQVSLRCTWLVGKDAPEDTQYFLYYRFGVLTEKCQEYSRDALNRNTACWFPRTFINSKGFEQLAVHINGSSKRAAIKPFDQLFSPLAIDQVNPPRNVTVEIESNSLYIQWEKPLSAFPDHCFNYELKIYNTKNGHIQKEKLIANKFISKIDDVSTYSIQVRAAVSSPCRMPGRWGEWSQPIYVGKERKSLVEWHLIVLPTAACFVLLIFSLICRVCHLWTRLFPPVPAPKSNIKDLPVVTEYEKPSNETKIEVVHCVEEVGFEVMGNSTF
Assay: flow cytometry on Y16 cells expressing mouse IL-5R, detection with goat F(ab')2 anti-human IgG PE, Geomean
EC50 (read off the curve) reference

As a guide, the following entries are already answered.
{"columns": ["Binder", "EC50 (read off the curve)"],
 "data": [
  ["H7 (CS) hIgG1 (N297A) (H7-4) (antibody, V domains shown, H7 VL with Cys 87 replaced by Ser. Human IgG1 constant region with N297A (EU index) and human kappa constant region; also called H7 (CS) altered form) VH: EVQLQQSGAELGKPGTSVKLSCKVSGYNIKNTYIHWVNQRPGKGLEWIGRIDPANGNPIYAEKFKNKATLTADTSSNTAYMQLSQLKSDDTAIYFCAMHRGHSMGPGPYVMDAWGQGASVTVSS VL: DIQMTQSPASLSASLGETVTIECRTSEDIYNGLAWYQQKPGKSPQLLIYNANSLHTGVPSRFSGSGSGTQYSLKINSLQSEDVASYSCQQYSNYPFTFGSGTKLEIK", "~0.04 µg/mL"],
  ["H7 (CS) hIgG1 (DF) (H7-2) (antibody, V domains shown, Human IgG1 and human kappa constant regions, no core fucose (FUT8-/- CHO); also called Cys substitution variant H7-2; H7 (CS) altered form) VH: EVQLQQSGAELGKPGTSVKLSCKVSGYNIKNTYIHWVNQRPGKGLEWIGRIDPANGNPIYAEKFKNKATLTADTSSNTAYMQLSQLKSDDTAIYFCAMHRGHSMGPGPYVMDAWGQGASVTVSS VL: DIQMTQSPASLSASLGETVTIECRTSEDIYNGLAWYQQKPGKSPQLLIYNANSLHTGVPSRFSGSGSGTQYSLKINSLQSEDVASYSCQQYSNYPFTFGSGTKLEIK", "~0.04 µg/mL"],
  ["H7 hIgG1 (N297A) (H7-3) (antibody, V domains shown, Rat H7 variable regions on a human IgG1 constant region with N297A (EU index), so it lacks the N-linked sugar chain; Human kappa light chain constant region; also called N-linked sugar chain-deficient H7 chimeric antibody) VH: EVQLQQSGAELGKPGTSVKLSCKVSGYNIKNTYIHWVNQRPGKGLEWIGRIDPANGNPIYAEKFKNKATLTADTSSNTAYMQLSQLKSDDTAIYFCAMHRGHSMGPGPYVMDAWGQGASVTVSS VL: DIQMTQSPASLSASLGETVTIECRTSEDIYNGLAWYQQKPGKSPQLLIYNANSLHTGVPSRFSGSGSGTQYSLKINSLQSEDVASYCCQQYSNYPFTFGSGTKLEIK", "~0.06 µg/mL"]
]}

Next:
Problem: Input H7 hIgG1 (DF) (H7-1) (antibody, V domains shown, also called core fucose-deficient H7 chimeric antibody; Potelligent-type H7 chimeric antibody) VH: EVQLQQSGAELGKPGTSVKLSCKVSGYNIKNTYIHWVNQRPGKGLEWIGRIDPANGNPIYAEKFKNKATLTADTSSNTAYMQLSQLKSDDTAIYFCAMHRGHSMGPGPYVMDAWGQGASVTVSS VL: DIQMTQSPASLSASLGETVTIECRTSEDIYNGLAWYQQKPGKSPQLLIYNANSLHTGVPSRFSGSGSGTQYSLKINSLQSEDVASYCCQQYSNYPFTFGSGTKLEIK , output reported EC50 (read off the curve).
Solution: ~0.06 µg/mL

These data points were gathered from patent US20180155434A1.
